Cited source for all entries: patent US20180186769A1

- Assay procedure: Clearance in microsomes, dog
- Type: in vitro ADME
- Experimental setup: 1 microM, read-out: CLint, Dog (L/h/kg) ± SD (converted)
For each record, write down the corresponding CLint scaled at 1 µM.
Form field: result (number plus unit)

Q: For the compound `[2H]C([2H])([2H])Oc1ccc(C(=O)Nc2ccc(F)c([C@@]3(C(F)F)N=C(N)CCC3(F)F)c2)nc1` , what CLint scaled at 1 µM is on record?
A: 21 L/h/kg

Q: Try this compound next: `COc1cnc(C(=O)Nc2ccc(F)c([C@]3(C)CC[C@@](F)(CF)C(N)=N3)c2)cn1`
A: 25 L/h/kg

Q: Try this compound next: `[2H]C([2H])([2H])Oc1cnc(C(=O)Nc2ccc(F)c([C@]3(C)CC[C@@](F)(CF)C(N)=N3)c2)cn1`
A: 5 L/h/kg

###

- Assay procedure: Bioanalysis of brain and plasma samples (UPLC-MS/MS)
- Format: in vivo, Sprague Dawley rats
- Experimental setup: male, Sprague Dawley, brain, po; rat, p.o., 10 mg/kg, 0.5 h; read-out: Mean rat brain conc.
Measurement label: concentration at 0.5 h (ng/g)
Express your answer in ng/g, writing the number without its unit.

Q: For the molecule [2H]C([2H])([2H])Oc1cnc(C(=O)Nc2ccc(F)c([C@]3(C)CC[C@@](F)(CF)C(N)=N3)c2)cn1 [Example 1] , what concentration at 0.5 h is on record?
A: 550

###

- Assay procedure: Bioanalysis of brain and plasma samples (UPLC-MS/MS)
- Type: in vivo, Sprague Dawley rats
- Experimental setup: male, Sprague Dawley, brain and plasma, po; rat, p.o., 10 mg/kg, 1 h; read-out: Brain/Plasma ratio
Measurement label: Kp at 1 h
Keep it simple and answer with nothing but the number.

Q: For the molecule `[2H]C([2H])([2H])Oc1cnc(C(=O)Nc2ccc(F)c([C@]3(C)CC[C@@](F)(CF)C(N)=N3)c2)cn1` , what Kp at 1 h is on record?
A: 2.3

###

- Assay procedure: Bioanalysis of brain and plasma samples (UPLC-MS/MS)
- Format: in vivo, Sprague Dawley rats
- Experimental setup: male, Sprague Dawley, brain and plasma, po; rat, p.o., 10 mg/kg, 12 h; read-out: Brain/Plasma ratio
Measurement label: Kp at 12 h
Keep it simple and answer with nothing but the number.

Q: For the compound [2H]C([2H])([2H])Oc1cnc(C(=O)Nc2ccc(F)c([C@]3(C)CC[C@@](F)(CF)C(N)=N3)c2)cn1 [Example 1] , what Kp at 12 h is on record?
A: 1.7

###

- Assay procedure: Clearance in microsomes, dog
- Type: in vitro ADME
- Experimental setup: 0.1 microM, read-out: CLint, Dog (L/h/kg) ± SD (converted)
Measurement label: CLint scaled at 0.1 µM (L/h/kg)
Express your answer in L/h/kg, writing the number without its unit.

Q: For the compound COc1cnc(C(=O)Nc2ccc(F)c([C@]3(C)CC[C@@](F)(CF)C(N)=N3)c2)cn1 [Compound Z] , what CLint scaled at 0.1 µM is on record?
A: 40

###

- Assay procedure: Clearance in microsomes, rat
- Assay type: in vitro ADME
- Experimental setup: 0.3 microM, read-out: CLint, Rat (L/h/kg) ± SD (converted)
Measurement label: CLint scaled at 0.3 µM (L/h/kg)
Express your answer in L/h/kg, writing the number without its unit.

Q: For the molecule `COc1cnc(C(=O)Nc2ccc(F)c([C@]3(C)CC[C@@](F)(CF)C(N)=N3)c2)cn1` , what CLint scaled at 0.3 µM is on record?
A: 1.8
